Entry source: patent US4837305A

Test system: S-49 mouse lymphoma cells
Experiment: Blocking of isoproterenol-promoted cyclic AMP accumulation in S-49 mouse lymphoma cells
Format: cell-based
Conditions: relative to propranolol; blocking isoproterenol-promoted cyclic AMP release in S49 cells
Kindly state Rel. Potency (potency relative to the parent compound) for each of the entries shown.

Q: Provide only the value of recorded Rel. Potency (potency relative to the parent compound) for Cc1ccc(NC(=O)CCC(C)NCC(O)COc2cccc3ccccc23)cc1 (stereo not shown) [Compound 7]
A: 6.8 × 10^-5

Q: Provide only the value of recorded Rel. Potency (potency relative to the parent compound) for Cc1ccc(NC(=O)CCCCCC(C)NCC(O)COc2cccc3ccccc23)cc1 (stereo not shown) [Compound 10]
A: 3.7 × 10^-2

Q: Provide only the value of recorded Rel. Potency (potency relative to the parent compound) for CCCCNC(=O)CCCCC(C)NCC(O)COc1cccc2ccccc12 (stereo not shown) [Compound 14]
A: 9.1 × 10^-1

Q: Provide only the value of recorded Rel. Potency (potency relative to the parent compound) for CC(CCCCC(=O)Nc1ccc(C(F)(F)F)cc1)NCC(O)COc1cccc2ccccc12 (stereo not shown) [Compound 11]
A: 8.75

Q: Provide only the value of recorded Rel. Potency (potency relative to the parent compound) for CCCCNC(=O)CCc1ccc(NC(=O)CCCCC(C)NCC(O)COc2cccc3ccccc23)cc1 (stereo not shown) [Compound 13]
A: 4.5 × 10^-2

Q: Provide only the value of recorded Rel. Potency (potency relative to the parent compound) for CC(CCCCC(=O)Nc1ccc(CCC(=O)O)cc1)NCC(O)COc1cccc2ccccc12 (stereo not shown) [Compound 12]
A: 8.8 × 10^-1

Q: Provide only the value of recorded Rel. Potency (potency relative to the parent compound) for CC(=O)N[C@@H](Cc1ccc(NC(=O)CCCCC(C)NCC(O)COc2cccc3ccccc23)cc1)C(=O)NCCCO (stereo partly shown) [Compound 15]
A: 1.75 × 10^-1

Q: Provide only the value of recorded Rel. Potency (potency relative to the parent compound) for Cc1ccc(NC(=O)CCCC(C)NCC(O)COc2cccc3ccccc23)cc1 (stereo not shown) [Compound 8]
A: 6.8 × 10^-5

Q: Provide only the value of recorded Rel. Potency (potency relative to the parent compound) for CNC(=O)CNC(=O)[C@H](Cc1ccc(NC(=O)CCCCC(C)NCC(O)COc2cccc3ccccc23)cc1)NC(=O)OC(C)(C)C (stereo partly shown) [Compound 16]
A: 7.8 × 10^-4

Q: Provide only the value of recorded Rel. Potency (potency relative to the parent compound) for Cc1ccc(NC(=O)CCCCC(C)NCC(O)COc2cccc3ccccc23)cc1 (stereo not shown) [Compound 9]
A: 4.5 × 10^2
